tested_target: EGFR on EGFR positive non-small cell lung cancer cells NCI-H1650 (UniProt P00533 25-1210)
protocol_notes: cell-based or functional assay
quantity: H1650 GFP Flourescence EC50 (µg/mL)
Only the number, expressed in µg/mL, is required.

binder: AbK-YY (antibody, human IgG1, kappa, V domains shown, synthon YY on reduced interchain cysteines; average DAR 1.7 per ADC) VH: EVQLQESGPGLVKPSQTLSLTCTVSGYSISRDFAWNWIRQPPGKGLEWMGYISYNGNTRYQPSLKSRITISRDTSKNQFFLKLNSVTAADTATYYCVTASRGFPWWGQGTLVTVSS VL: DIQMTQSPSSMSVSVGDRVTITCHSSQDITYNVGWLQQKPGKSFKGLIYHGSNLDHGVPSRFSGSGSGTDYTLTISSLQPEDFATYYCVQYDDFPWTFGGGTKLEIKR
H1650 GFP Flourescence EC50, µg/mL: 1.09

binder: AbB-YY (antibody, human IgG1, kappa, V domains shown, synthon YY on reduced interchain cysteines; average DAR 2.2 per ADC) VH: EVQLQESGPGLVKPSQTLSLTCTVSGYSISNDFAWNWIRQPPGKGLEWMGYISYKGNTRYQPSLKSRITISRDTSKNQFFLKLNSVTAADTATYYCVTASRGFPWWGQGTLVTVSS VL: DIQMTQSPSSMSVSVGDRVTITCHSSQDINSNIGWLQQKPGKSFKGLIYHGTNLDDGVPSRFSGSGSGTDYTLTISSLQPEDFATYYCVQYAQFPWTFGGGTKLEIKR
H1650 GFP Flourescence EC50, µg/mL: 7.73

binder: AbG-TV (antibody, human IgG1, kappa, V domains shown, synthon TV on reduced interchain cysteines; average DAR 3.7 per ADC) VH: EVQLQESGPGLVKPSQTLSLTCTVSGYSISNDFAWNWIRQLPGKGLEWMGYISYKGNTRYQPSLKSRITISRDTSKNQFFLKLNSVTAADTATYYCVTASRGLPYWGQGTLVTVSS VL: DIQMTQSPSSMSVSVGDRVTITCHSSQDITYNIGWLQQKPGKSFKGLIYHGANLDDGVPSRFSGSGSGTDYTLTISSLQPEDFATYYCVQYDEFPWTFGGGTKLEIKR
H1650 GFP Flourescence EC50, µg/mL: 0.04

Attention now shifts to the item below.
[ask] Supply measured H1650 GFP Flourescence EC50 of AbG-YG (antibody, human IgG1, kappa, V domains shown, synthon YG on reduced interchain cysteines; average DAR 3.7 per ADC) VH: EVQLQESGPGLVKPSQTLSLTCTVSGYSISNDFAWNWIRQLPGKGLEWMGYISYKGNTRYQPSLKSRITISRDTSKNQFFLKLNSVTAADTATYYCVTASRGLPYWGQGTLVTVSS VL: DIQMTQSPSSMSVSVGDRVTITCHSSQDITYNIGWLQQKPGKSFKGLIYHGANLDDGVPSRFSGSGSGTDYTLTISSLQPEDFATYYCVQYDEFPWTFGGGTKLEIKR in your reply.
[reply] 0.63
